Quick list: % CAF 10 uM @ 60 min per entry.
# testTarget: Cys12 of the KRAS 4B G12C protein (Homo sapiens, UniProt P01116, G12C)
# Construct: This protein contained 188 amino acids in total, including an N-terminal 6-Histidine tag; made in house; host or cells: E. coli BL21
# experimentDescription: In vitro covalent adduct formation (CAF) assay, LC-MS intact mass
# Format: binding
# conditionSet: 10 uM compound, 60 min

- compound: "C=CC(=O)N1C[C@H](C)N(c2nc(=O)n3c4c(c(-c5cc(Cl)c(F)cc5F)c(C(F)(F)F)cc24)SC[C@@H]3CN2CCC3(CC2)COC3)C[C@H]1C (atropisomer, axis not shown) [Example 1312]"
  testTarget: "Cys12 of the KRAS 4B G12C protein (Homo sapiens, UniProt P01116, G12C)"
  % CAF 10 uM @ 60 min (%): 72
- compound: "C=CC(=O)N1[C@H](C)CN(c2nc(=O)n3c4c(c(-c5ccc(F)c(Cl)c5)c(C(F)(F)F)cc24)SC[C@@H]3CN2CCN(CC)CC2)C[C@@H]1C [Example 1373]"
  testTarget: "Cys12 of the KRAS 4B G12C protein (Homo sapiens, UniProt P01116, G12C)"
  % CAF 10 uM @ 60 min (%): 66.2
- compound: "C=CC(=O)N1[C@H](C)CN(c2nc(=O)n3c4c(c(-c5cc(Cl)c(F)cc5F)c(C(F)(F)F)cc24)SCC2(COC2)C3)C[C@@H]1C (atropisomer, axis not shown) [Example 1361a]"
  testTarget: "Cys12 of the KRAS 4B G12C protein (Homo sapiens, UniProt P01116, G12C)"
  % CAF 10 uM @ 60 min (%): 93.3
- compound: "[2H]C([2H])=C([2H])C(=O)N1[C@H](C)CN(c2nc(=O)n3c4c(c(-c5cc(Cl)c(F)cc5F)c(C(F)(F)F)cc24)SC[C@@H]3COC)C[C@@H]1C (atropisomer, axis not shown) [Example 1393]"
  testTarget: "Cys12 of the KRAS 4B G12C protein (Homo sapiens, UniProt P01116, G12C)"
  % CAF 10 uM @ 60 min (%): 95.4
- compound: "C=CC(=O)N1C2COCC1CN(c1nc(=O)n3c4c(c(-c5ccc(F)cc5)c(C(F)(F)F)cc14)SC[C@@H]3COC)C2 [Example 1384]"
  testTarget: "Cys12 of the KRAS 4B G12C protein (Homo sapiens, UniProt P01116, G12C)"
  % CAF 10 uM @ 60 min (%): 77.8

Data provenance is patent US20230107642A1.
